Reference source: PubChem BioAssay AID743479

Measured activity change, negative = inhibition by item
test: reduction of NR0B1-luciferase signal in A673 cells – cell-based, luciferase luminescence, dry powder, dose response (AID 743479); conditions: A673 NR0B1-luciferase reporter, viability-normalised luminescence; at 68 µM (top of the series)
Records with an inconclusive call do not appear.
Measurement Kind: activity change, negative = inhibition (%)

[[record]]
molecule = "COc1ccc(-c2cc(NC(C)=O)c3ncc(-c4ccc(OC)c(OC)c4)n3c2)cc1"
assay_result = -21.4

[[record]]
molecule = "COc1cc(Nc2ncc3c(n2)-c2ccc(Cl)cc2C(c2c(F)cccc2OC)=NC3)ccc1C(=O)O"
assay_result = 114

[[record]]
molecule = "COc1ccc(C2CNC(=O)C2)cc1OC1CCCC1 (stereo not given)"
assay_result = -4.33

[[record]]
molecule = "CCCCc1ccc2nc(NC(=O)OC)[nH]c2c1"
assay_result = -8.52

[[record]]
molecule = "C[C@]1(c2nc3c(C(N)=O)cccc3[nH]2)CCCN1"
assay_result = -14.9

